From: patent US20240132431A1

- target_system: Bcl-2 protein (Recombinant Human Bcl-2 Protein) (Homo sapiens)
- Construct: purchased Novus NBP2-34889
- Sequence (P10415 whole entry): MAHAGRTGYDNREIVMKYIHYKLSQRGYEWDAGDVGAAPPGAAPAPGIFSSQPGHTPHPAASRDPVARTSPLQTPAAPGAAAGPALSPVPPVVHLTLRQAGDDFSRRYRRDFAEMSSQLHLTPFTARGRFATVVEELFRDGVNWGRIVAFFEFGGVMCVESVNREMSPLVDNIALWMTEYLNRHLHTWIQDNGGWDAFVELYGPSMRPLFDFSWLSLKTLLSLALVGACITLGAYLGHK
- assay_details: Binding evaluation of mixture library compounds to Bcl-2 using AS-MS (affinity selection mass spectrometry)
- particulars: AS-MS on the mixture of 1200 library compounds; ASMS Ratio(%)=(A−C)/B×100; replicate n = 1
measured_metric: ASMS ratio (%) n = 1

Lookup: Which measured ASMS ratio (%) n = 1 value corresponds to CCOc1cncc(C#Cc2cc(C(=O)N3CCN(c4ccc(C(=O)Nc5ccc(OC)cc5)nn4)CC3)cc(C(F)(F)F)c2)c1 ?
Found: 8.6

(P) CCOc1cncc(C#Cc2ccccc2C(=O)N2CCN(c3ccc(C(=O)N(C)CC45CC6CC(CC(C6)C4)C5)cc3)CC2)c1
(Q) CCOc1cccc(-c2cnn(-c3cc(C(=O)N4CCN(c5ccc(C(=O)N(C)CC67CC8CC(CC(C8)C6)C7)nn5)CC4)cc(C(F)(F)F)c3)c2)c1
Lookup: Choose between P and Q : whose measured ASMS ratio (%) n = 1 value is numerically larger? Choose, then provide that item's label.
Found: Q
